Every entry's value here was drawn from paper PMC5841658.

# Tested on: zebrafish hearing thresholds
# assay-name: Auditory evoked potential (AEP) testing in zebrafish inner ear model
# Assay type: in vivo, Danio rerio
# condition-notes: 1500 Hz, 25 mg/kg i.p., 48 h
quantity-kind: AEP hearing threshold, significance of pairwise comparison against vehicle

>>> print(df.to_string())
                                   molecule         target_or_test_system             result
0  [NH3+][Pt-2]([NH3+])([Cl])[n+]1ccccc1 (stereo not shown)  zebrafish hearing thresholds  ns (ns, p > 0.05)
1  CC[N+]1(CC)CC[NH+]2CC[NH2+][Pt-2]21[Cl] (stereo not shown) [[Pt(Et2dien)Cl]^+, Pt(N,N-diethyldiethylenetriamine)Cl]  zebrafish hearing thresholds  ns (ns, p > 0.05)
2  [Cl][Pt-2]12[NH2+]CC[NH+]1CC[NH2+]2 (stereo not shown) [[Pt(dien)Cl]^+, Pt(diethylenetriamine)Cl]  zebrafish hearing thresholds  ns (ns, p > 0.05)

###

What pIC50 was measured for each of the following?
# Tested on: Caco-2 colorectal cancer cell line
# assay-name: MTT cellular viability assay, Caco2
# Assay type: cell-based
# condition-notes: 72 hours, ± standard deviation
One number for each entry, as −log10 of the molar value.

For orientation, consider the following solved cases.
>>> print(df.to_string())
                                   compound  numeric_result
0  CC[N+]1(CC)CC[NH+]2CC[NH][Pt-2]21[Cl] (stereo not drawn) [[Pt(Et2dien)Cl]^+, Pt(N,N-diethyldiethylenetriamine)Cl]            4.14
1  [NH3+][Pt-2]([NH3+])([Cl])[n+]1ccccc1 (stereo not drawn)            4.68

Now take the following compound into account.
Form: compound = [Cl][Pt-2]12[NH2+]CC[NH+]1CC[NH2+]2 (stereo not drawn) [[Pt(dien)Cl]^+, Pt(diethylenetriamine)Cl] ; pIC50 = 4.38
